B1: STX5 (parent)
chain: RSEFTLMAKRIGKDLSNTFAKLEK

variants of: B1; assay: protein stability index of a GFP-peptide fusion (GPS, HEK-293T) (PSI 1-6); higher = more stable; details: c terminus: a fixed tail appended;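 further: lentivirally expressed fusions sorted by FACS into six bins by GFP to DsRed ratio, PSI derived from sequencing read proportions per bin multiplied by bin number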
Please respond with reported protein stability index for every item in the list.
Numbers only.

N17I ... 3.01

Please give protein stability index, item by item, for the list that follows.
1. R10A
2. A8Y

-- reply
1: 2.85; 2: 1.85
